B1: Far upstream element-binding protein 1, residues 184 to 257; numbered along this chain, Q96AE4 (parent)
chain: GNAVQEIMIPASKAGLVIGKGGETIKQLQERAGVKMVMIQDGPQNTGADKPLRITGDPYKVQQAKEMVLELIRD

Variants of: B1
assay: abundance fitness (aPCA) (normalised: wild type 0, dead -1); higher = more abundant; growth selection in yeast, the domain comes from the species named
condition: Homo sapiens
outcome.measure: abundance fitness

Reference set (6 entries):
Asked: Could you please provide reported abundance fitness for V68S ? Thanks!
Given back: -0.425

Asked: Could you please provide reported abundance fitness for D49F ? Thanks!
Given back: -0.081

Asked: Could you please provide reported abundance fitness for V61T ? Thanks!
Given back: -0.154

Asked: Could you please provide reported abundance fitness for G47I ? Thanks!
Given back: -0.168

Asked: Could you please provide reported abundance fitness for L71K ? Thanks!
Given back: -0.001

Asked: Could you please provide reported abundance fitness for I54Y ? Thanks!
Given back: -1.19

Others:
Asked: Could you please provide reported abundance fitness for D49W ? Thanks!
Given back: -0.114

Asked: Could you please provide reported abundance fitness for G56E ? Thanks!
Given back: -1.05

Asked: Could you please provide reported abundance fitness for Q40E ? Thanks!
Given back: -0.067

Asked: Could you please provide reported abundance fitness for A11F ? Thanks!
Given back: -0.13

Asked: Could you please provide reported abundance fitness for G33W ? Thanks!
Given back: -0.807

Asked: Could you please provide reported abundance fitness for D57V ? Thanks!
Given back: -0.085

Asked: Could you please provide reported abundance fitness for Q44I ? Thanks!
Given back: -0.046

Asked: Could you please provide reported abundance fitness for G33V ? Thanks!
Given back: -0.596
